- Tested on: OVCAR-8
- Assay Procedure: Anticancer activity against Homo sapiens (human) OVCAR8 cells after 48 hr by SRB assay
- Type: functional
- Reported Conditions: OVCAR-8, 48 h
Listing of entries alongside the reported GI50.
Value Type: GI50 (µM)

smiles_entry=COc1ccc(OC)c(/C=C/C(=O)N/N=C/c2ccc(Cl)cc2)c1 units=µM meas_value=0.35
smiles_entry=COc1ccc(OC)c(/C=C/c2nnc(S)n2-c2ccc(Cl)cc2)c1 units=µM meas_value=28.4
smiles_entry=COc1ccc(OC)c(/C=C/C(=O)N/N=C/c2ccccc2)c1 units=µM meas_value=5.44
smiles_entry=COc1ccc(OC)c(/C=C/c2nnc(Nc3ccc(Cl)cc3)o2)c1 units=µM meas_value=4.91

---

Listing of entries alongside the reported TGI.
- Test system: MDA-MB-468
- Assay Procedure: Anticancer activity against Homo sapiens (human) MDA-MB-468 cells after 48 hr by SRB assay
- Assay type: functional
- Reported Conditions: MDA-MB-468, 48 h
Value Type: TGI (µM)

smiles_entry=COc1ccc(OC)c(/C=C/c2nnc(Nc3ccc(Cl)cc3)o2)c1 value_type=TGI operator_symbol=> meas_value=100
smiles_entry=COc1ccc(OC)c(/C=C/C(=O)N/N=C/c2ccc(Cl)cc2)c1 value_type=TGI operator_symbol== meas_value=0.445
smiles_entry=COc1ccc(OC)c(/C=C/C(=O)N/N=C/c2ccccc2)c1 value_type=TGI operator_symbol== meas_value=6.47
smiles_entry=COc1ccc(OC)c(/C=C/c2nnc(S)n2-c2ccc(Cl)cc2)c1 value_type=TGI operator_symbol== meas_value=55.4

---

- Tested on: 786-0
- Assay Procedure: Anticancer activity against Homo sapiens (human) 786-0 cells after 48 hr by SRB assay
- Assay type: functional
- Reported Conditions: 786-0, 48 h
Value Type: TGI

smiles_entry=COc1ccc(OC)c(/C=C/C(=O)N/N=C/c2ccc(Cl)cc2)c1 study_system=786-0 value_type=TGI meas_value="> 100 µM"
smiles_entry=COc1ccc(OC)c(/C=C/c2nnc(Nc3ccc(Cl)cc3)o2)c1 study_system=786-0 value_type=TGI meas_value="7.6 µM"
smiles_entry=COc1ccc(OC)c(/C=C/C(=O)N/N=C/c2ccccc2)c1 study_system=786-0 value_type=TGI meas_value="72.5 µM"
smiles_entry=COc1ccc(OC)c(/C=C/c2nnc(S)n2-c2ccc(Cl)cc2)c1 study_system=786-0 value_type=TGI meas_value="> 100 µM"

---

- Tested on: Malme-3M
- Assay Procedure: Anticancer activity against Homo sapiens (human) MALME-3M cells after 48 hr by SRB assay
- Format: functional
Listing of entries alongside the reported TGI.
Value Type: TGI

smiles_entry=COc1ccc(OC)c(/C=C/C(=O)N/N=C/c2ccc(Cl)cc2)c1 study_system=Malme-3M value_type=TGI meas_value="> 100 µM"
smiles_entry=COc1ccc(OC)c(/C=C/c2nnc(S)n2-c2ccc(Cl)cc2)c1 study_system=Malme-3M value_type=TGI meas_value="> 100 µM"
smiles_entry=COc1ccc(OC)c(/C=C/C(=O)N/N=C/c2ccccc2)c1 study_system=Malme-3M value_type=TGI meas_value="> 100 µM"
smiles_entry=COc1ccc(OC)c(/C=C/c2nnc(Nc3ccc(Cl)cc3)o2)c1 study_system=Malme-3M value_type=TGI meas_value="52.4 µM"

---

- Test system: SF-295
- Assay Procedure: Anticancer activity against Homo sapiens (human) SF295 cells after 48 hr by SRB assay
- Format: functional
- Reported Conditions: SF-295, 48 h
Listing of entries alongside the reported TGI.
Value Type: TGI (µM)

smiles_entry=COc1ccc(OC)c(/C=C/C(=O)N/N=C/c2ccc(Cl)cc2)c1 value_type=TGI operator_symbol== meas_value=6.44
smiles_entry=COc1ccc(OC)c(/C=C/C(=O)N/N=C/c2ccccc2)c1 value_type=TGI operator_symbol== meas_value=11.1
smiles_entry=COc1ccc(OC)c(/C=C/c2nnc(S)n2-c2ccc(Cl)cc2)c1 value_type=TGI operator_symbol=> meas_value=100
smiles_entry=COc1ccc(OC)c(/C=C/c2nnc(Nc3ccc(Cl)cc3)o2)c1 value_type=TGI operator_symbol== meas_value=64.5

---

- Test system: Pseudomonas aeruginosa
- Assay Procedure: Antimicrobial activity against Pseudomonas aeruginosa ATCC 10145 after 48 hr by two-fold serial broth dilution method
- Type: functional
- Reported Conditions: ATCC 10145, 48 h
Listing of entries alongside the reported MBC.
Value Type: MBC (µg/mL)

smiles_entry=COc1ccc(OC)c(/C=C/c2nnc(SCC(=O)c3cc(O)ccc3O)n2-c2ccc(C)cc2)c1 value_type=MBC meas_value=50
smiles_entry=COc1ccc(OC)c(/C=C/c2nnc(Nc3ccccc3)o2)c1 value_type=MBC meas_value=25
smiles_entry=COc1ccc(OC)c(/C=C/C(=O)N/N=C/c2ccc([N+](=O)[O-])cc2)c1 value_type=MBC meas_value=50
smiles_entry=CCSc1nnc(/C=C/c2cc(OC)ccc2OC)n1-c1ccccc1 value_type=MBC meas_value=100
smiles_entry=CCSc1nnc(/C=C/c2cc(OC)ccc2OC)n1-c1ccc(C)cc1 value_type=MBC meas_value=100
smiles_entry=COc1ccc(OC)c(/C=C/c2nnc(SC)n2-c2ccc(C)cc2)c1 value_type=MBC meas_value=25
smiles_entry=COc1ccc(OC)c(/C=C/c2nnc(SC)n2-c2ccccc2)c1 value_type=MBC meas_value=50
smiles_entry=COc1ccc(OC)c(/C=C/C(=O)N/N=C/c2ccc(Cl)cc2)c1 value_type=MBC meas_value=50
smiles_entry=COc1ccc(OC)c(/C=C/c2nnc(SC)n2-c2ccc(Cl)cc2)c1 value_type=MBC meas_value=50
smiles_entry=COc1ccc(OC)c(/C=C/c2nnc(SCC(=O)c3cc(O)ccc3O)n2-c2ccc(Cl)cc2)c1 value_type=MBC meas_value=25

---

Listing of entries alongside the reported LC50.
- System: M14
- Assay Procedure: Anticancer activity against Homo sapiens (human) M14 cells after 48 hr by SRB assay
- Type: functional
- Reported Conditions: M14, 48 h
Value Type: LC50

smiles_entry=COc1ccc(OC)c(/C=C/C(=O)N/N=C/c2ccc(Cl)cc2)c1 value_type=LC50 meas_value="> 100 µM"
smiles_entry=COc1ccc(OC)c(/C=C/c2nnc(S)n2-c2ccc(Cl)cc2)c1 value_type=LC50 meas_value="> 100 µM"
smiles_entry=COc1ccc(OC)c(/C=C/C(=O)N/N=C/c2ccccc2)c1 value_type=LC50 meas_value="> 100 µM"
smiles_entry=COc1ccc(OC)c(/C=C/c2nnc(Nc3ccc(Cl)cc3)o2)c1 value_type=LC50 meas_value="> 100 µM"

---

- Test system: OVCAR-4
- Assay Procedure: Anticancer activity against Homo sapiens (human) OVCAR4 cells after 48 hr by SRB assay
- Type: functional
- Reported Conditions: OVCAR-4, 48 h
Listing of entries alongside the reported GI50.
Value Type: GI50 (µM)

smiles_entry=COc1ccc(OC)c(/C=C/C(=O)N/N=C/c2ccc(Cl)cc2)c1 value_type=GI50 meas_value=0.439
smiles_entry=COc1ccc(OC)c(/C=C/c2nnc(S)n2-c2ccc(Cl)cc2)c1 value_type=GI50 meas_value=20.6
smiles_entry=COc1ccc(OC)c(/C=C/c2nnc(Nc3ccc(Cl)cc3)o2)c1 value_type=GI50 meas_value=2.44
smiles_entry=COc1ccc(OC)c(/C=C/C(=O)N/N=C/c2ccccc2)c1 value_type=GI50 meas_value=14.3

---

- System: HCT-116
- Assay Procedure: Growth inhibition of Homo sapiens (human) HCT116 cells at 10 uM after 48 hr by SRB assay
- Assay type: functional
- Reported Conditions: HCT-116, 48 h, read-out: GI
Value Type: inhibition of growth at 10 µM (%)

smiles_entry=COc1ccc(OC)c(/C=C/c2nnc(Nc3ccc(Cl)cc3)o2)c1 study_system=HCT-116 value_type="inhibition of growth at 10 µM" units=% meas_value=78.1
smiles_entry=COc1ccc(OC)c(/C=C/c2nnc(S)n2-c2ccc(Cl)cc2)c1 study_system=HCT-116 value_type="inhibition of growth at 10 µM" units=% meas_value=70.4
smiles_entry=COc1ccc(OC)c(/C=C/c2nnc(SC)n2-c2ccc(Cl)cc2)c1 study_system=HCT-116 value_type="inhibition of growth at 10 µM" units=% meas_value=40.2
smiles_entry=COc1ccc(OC)c(/C=C/C(=O)N/N=C/c2ccc(Cl)cc2)c1 study_system=HCT-116 value_type="inhibition of growth at 10 µM" units=% meas_value=94.3
smiles_entry=COc1ccc(OC)c(/C=C/C(=O)N/N=C/c2ccccc2)c1 study_system=HCT-116 value_type="inhibition of growth at 10 µM" units=% meas_value=85.8

---

- Tested on: U-251
- Assay Procedure: Anticancer activity against Homo sapiens (human) U251 cells after 48 hr by SRB assay
- Assay type: functional
- Reported Conditions: U-251, 48 h
Listing of entries alongside the reported GI50.
Value Type: GI50

smiles_entry=COc1ccc(OC)c(/C=C/C(=O)N/N=C/c2ccc(Cl)cc2)c1 meas_value="0.184 µM"
smiles_entry=COc1ccc(OC)c(/C=C/C(=O)N/N=C/c2ccccc2)c1 meas_value="3.68 µM"
smiles_entry=COc1ccc(OC)c(/C=C/c2nnc(S)n2-c2ccc(Cl)cc2)c1 meas_value="6.88 µM"
smiles_entry=COc1ccc(OC)c(/C=C/c2nnc(Nc3ccc(Cl)cc3)o2)c1 meas_value="3.81 µM"
